pIC50 tested on PDE4D2 (Homo sapiens (Human)): recorded values
Sequence (Q08499 303-809, change not shown): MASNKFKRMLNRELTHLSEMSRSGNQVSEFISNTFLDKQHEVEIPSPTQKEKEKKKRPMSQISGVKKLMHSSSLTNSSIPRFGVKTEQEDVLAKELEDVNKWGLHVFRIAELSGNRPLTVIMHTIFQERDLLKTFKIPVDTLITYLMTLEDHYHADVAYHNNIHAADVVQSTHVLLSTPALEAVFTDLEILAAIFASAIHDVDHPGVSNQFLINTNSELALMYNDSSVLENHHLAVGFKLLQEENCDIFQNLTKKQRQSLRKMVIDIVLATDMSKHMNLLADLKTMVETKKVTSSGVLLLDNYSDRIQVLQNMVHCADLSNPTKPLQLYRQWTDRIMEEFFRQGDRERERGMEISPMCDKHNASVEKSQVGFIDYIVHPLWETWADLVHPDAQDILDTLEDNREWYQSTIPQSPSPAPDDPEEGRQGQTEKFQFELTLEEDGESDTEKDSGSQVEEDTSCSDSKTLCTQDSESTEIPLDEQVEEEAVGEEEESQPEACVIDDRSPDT
pIC50: −log10 of the molar value.

| molecule | measurement_target | pIC50 |
| --- | --- | --- |
| NC(=O)OCC1(Nc2nc(N3CC=C(c4ncc(C5CC5)cn4)CC3)nc3c2[S@+]([O-])CC3)CCC1 | PDE4D2 (Homo sapiens (Human)) | > 8.00 |
| CN(C)c1cnc(C2=CCN(c3nc4c(c(NC(C)(C)COC(N)=O)n3)[S@+]([O-])CC4)CC2)nc1 | PDE4D2 (Homo sapiens (Human)) | 7.30 to 8.00 |
| C#Cc1ccc(C2=CCN(c3nc4c(c(NC5(CNC(=O)OC)CCC5)n3)[S@+]([O-])CC4)CC2)nc1 | PDE4D2 (Homo sapiens (Human)) | > 8.00 |
| C#Cc1ccc(N2CCN(c3nc4c(c(NC5(CO)CCC5)n3)[S+]([O-])CCC4)CC2)cc1 (stereo not shown) | PDE4D2 (Homo sapiens (Human)) | 7.30 to 8.00 |
| NC(=O)OCC1(Nc2nc(N3C[C@H]4CC(c5ccc(Cl)cc5)=C[C@H]4C3)nc3c2[S@+]([O-])CC3)CCC1 | PDE4D2 (Homo sapiens (Human)) | 7.30 to 8.00 |
| CC(C)(COC(N)=O)Nc1nc(N2CC=C(c3ccc4c(c3)C[Si](C)(C)C4)CC2)nc2c1[S@+]([O-])CC2 | PDE4D2 (Homo sapiens (Human)) | 7.30 to 8.00 |
| CC(C)c1cnc(C2=CCN(c3nc4c(c(NC(C)(C)COC(N)=O)n3)[S@+]([O-])CC4)CC2)nc1 | PDE4D2 (Homo sapiens (Human)) | 7.30 to 8.00 |
| [O-][S@+]1CCc2nc(N3CC=C(c4ncc(Cl)cn4)CC3)nc(Nc3ccnc(F)c3)c21 | PDE4D2 (Homo sapiens (Human)) | > 8.00 |
| CCOc1cnc2c(c1)OC[C@H]1CN(c3nc4c(c(NC(C)(C)COC(N)=O)n3)[S+]([O-])CC4)CCN21 (stereo partly shown) | PDE4D2 (Homo sapiens (Human)) | 7.30 to 8.00 |
| C#Cc1cnc(C2=CCN(c3nc4c(c(NC5([C@H](C)O)CCC5)n3)[S@@+]([O-])CC4)CC2)nc1 | PDE4D2 (Homo sapiens (Human)) | 7.30 to 8.00 |
| C#Cc1cnc(C2=CCN(c3nc4c(c(NC5(COC(F)F)CCC5)n3)[S+]([O-])CC4)CC2)nc1 (stereo not shown) | PDE4D2 (Homo sapiens (Human)) | > 8.00 |
| CN1C[C@@H](Nc2nc(N3C[C@H]4CN(c5ccc6c(c5)CC6)C[C@H]4C3)nc3c2[S@@+]([O-])CC3)CCC1=O | PDE4D2 (Homo sapiens (Human)) | > 8.00 |
| [O-][S+]1CCc2nc(N3C[C@@H]4CC(c5ccc(Cl)cc5)=C[C@@H]4C3)nc(NC3CN(CCCF)C3)c21 (single isomer, unassigned) | PDE4D2 (Homo sapiens (Human)) | 7.30 to 8.00 |
| CC(C)(CO)Nc1nc(N2CC=C(c3ccc4c(c3)C[Si](C)(C)C4)CC2)nc2c1[S@+]([O-])CC2 | PDE4D2 (Homo sapiens (Human)) | 7.30 to 8.00 |
| CC(C)(CO)Nc1nc(N2CC=C(c3ncc(Cl)cn3)CC2)nc2c1[S+]([O-])CC2 (stereo not shown) | PDE4D2 (Homo sapiens (Human)) | 7.30 to 8.00 |
| [O-][S@@+]1CCCc2nc(N3CCN(c4ncc(Cl)cn4)CC3)nc(NC3(CO)CCC3)c21 | PDE4D2 (Homo sapiens (Human)) | 7.30 to 8.00 |
| C#Cc1cnc(C2=CCN(c3nc4c(c(NC5(CN/C(C)=N/C#N)CCC5)n3)[S@+]([O-])CC4)CC2)nc1 | PDE4D2 (Homo sapiens (Human)) | > 8.00 |
| CC#Cc1cnc2c(c1)OC[C@@H]1CN(c3nc4c(c(NC(C)(C)COC(N)=O)n3)[S@+]([O-])CC4)CCN21 | PDE4D2 (Homo sapiens (Human)) | 7.30 to 8.00 |
| [O-][S@@+]1CCCc2nc(N3CC=C(c4ccc(Cl)cc4)CC3)nc(NC3(CO)CCC3)c21 | PDE4D2 (Homo sapiens (Human)) | > 8.00 |
| CC#Cc1ccc(C2=CCN(c3nc4c(c(NC5(COC(N)=O)CCC5)n3)[S@+]([O-])CC4)CC2)nc1 | PDE4D2 (Homo sapiens (Human)) | > 8.00 |
| C#Cc1ccc(C2=CCN(c3nc4c(c(NC5([C@@H](C)O)CCC5)n3)[S@@+]([O-])CC4)CC2)nc1 | PDE4D2 (Homo sapiens (Human)) | > 8.00 |
| [O-][S@+]1CCc2nc(N3CC=C(c4ncc(Cl)cn4)CC3)nc(NC3(CO)CCCC3)c21 | PDE4D2 (Homo sapiens (Human)) | > 8.00 |
| Cc1cnc2c(c1)OC[C@H]1CN(c3nc4c(c(NC(C)(C)COC(N)=O)n3)[S@+]([O-])CC4)CCN21 | PDE4D2 (Homo sapiens (Human)) | 7.30 to 8.00 |
| [O-][S@+]1CCc2nc(N3CC4CN(c5ccc6c(c5)CC6)CC4C3)nc(Nc3cccc(F)c3)c21 (stereo partly shown) | PDE4D2 (Homo sapiens (Human)) | 7.30 to 8.00 |
| C#Cc1ccc(C2=CCN(c3nc4c(c(NC(C)(C)COC(N)=O)n3)[S@+]([O-])CC4)CC2)nc1 | PDE4D2 (Homo sapiens (Human)) | > 8.00 |
| COc1cnc(C2=CCN(c3nc4c(c(NC(C)(C)COC(N)=O)n3)[S@+]([O-])CC4)CC2)nc1 | PDE4D2 (Homo sapiens (Human)) | 7.30 to 8.00 |
| [O-][S+]1CCc2nc(N3CCN4c5ccccc5OC[C@H]4C3)nc(NC3(CO)COC3)c21 (stereo partly shown) | PDE4D2 (Homo sapiens (Human)) | 7.30 to 8.00 |
| C#Cc1cnc(C2=CCN(c3nc4c(c(NC5([C@@H](C)O)CCC5)n3)[S@+]([O-])CC4)CC2)nc1 | PDE4D2 (Homo sapiens (Human)) | 7.30 to 8.00 |

###

procedure_text: Pharmacokinetic test in beagle dogs
Type: in vivo
test_context: male, po; beagle dog plasma, i.g. 3 mg/kg

| mol_smiles | AUC(0-t), ng·h/mL |
| --- | --- |
| CC(C)(COC(N)=O)Nc1nc(N2CC=C(c3ncc(Cl)cn3)CC2)nc2c1[S@+]([O-])CC2 | 11200 |

###

procedure_text: Pharmacokinetic test in mice
Format: in vivo, ICR mice
test_context: male, ICR, po; mouse plasma, i.g. 10 mg/kg
readout_kind: AUC(0-t) (ng·h/mL)

| compound | result_units | experimental_value |
| --- | --- | --- |
| CC(C)(COC(N)=O)Nc1nc(N2CC=C(c3ncc(Cl)cn3)CC2)nc2c1[S@+]([O-])CC2 [Compound 51] | ng·h/mL | 30100 |

###

procedure_text: Pharmacokinetic test in mice
Type: in vivo, ICR mice
test_context: male, ICR, iv; mouse plasma, i.v. 2.5 mg/kg

| mol_smiles | AUC(0-t) / ng·h/mL |
| --- | --- |
| CC(C)(COC(N)=O)Nc1nc(N2CC=C(c3ncc(Cl)cn3)CC2)nc2c1[S@+]([O-])CC2 | 5420 |

###

procedure_text: Pharmacokinetic test in beagle dogs
Assay type: in vivo
test_context: male, po; beagle dog plasma, i.g. 3 mg/kg; read-out: T½ (converted)
readout_kind: half-life

| mol_smiles | experimental_value |
| --- | --- |
| CC(C)(COC(N)=O)Nc1nc(N2CC=C(c3ncc(Cl)cn3)CC2)nc2c1[S@+]([O-])CC2 | 16.1 h |

###

// endpoint IC50 / system PDE4D2 (Homo sapiens (Human))

| compound | IC50 |
| --- | --- |
| Cc1coc(C2=CCN(c3nc4c(c(NC5(COC(N)=O)CCC5)n3)[S@+]([O-])CC4)CC2)n1 | < 10 nM |
| [O-][S+]1CCCc2nc(N3CCC(c4ncc(Cl)cn4)CC3)nc(NC3(CO)CCC3)c21 (centres unmarked) | < 10 nM |
| CC#Cc1cnc(C2=CCN(c3nc4c(c(NC5(COC(F)F)CCC5)n3)[S@+]([O-])CC4)CC2)nc1 | < 10 nM |
| CC#Cc1ccc(C2=CCN(c3nc4c(c(NC(C)(C)COC(N)=O)n3)[S@+]([O-])CC4)CC2)nc1 | < 10 nM |
| COC(=O)NCC(C)(C)Nc1nc(N2CCN3c4ncc(C)cc4OC[C@H]3C2)nc2c1[S@+]([O-])CC2 | 10 to 50 nM |
| [O-][S@@+]1CCCc2nc(N3CC=C(c4ncc(Cl)cn4)CC3)nc(NC3(CO)CCC3)c21 | < 10 nM |
| C#Cc1ccc(C2=CCN(c3nc4c(c(NC5([C@@H](C)O)CCC5)n3)[S@+]([O-])CC4)CC2)nc1 | < 10 nM |
| CC#Cc1ccc(C2=CCN(c3nc4c(c(NC5(CNC(=O)OC)CCC5)n3)[S@+]([O-])CC4)CC2)nc1 | < 10 nM |
| [O-][S@@+]1CCCc2nc(N3CCC=C(c4ncc(Cl)cn4)CC3)nc(NC3(CO)CCC3)c21 | 10 to 50 nM |
| Cc1cnc2c(c1)OC[C@@H]1CN(c3nc4c(c(NC(C)(C)COC(N)=O)n3)[S@+]([O-])CC4)CCN21 | 10 to 50 nM |
| C#Cc1cnc(C2=CCN(c3nc4c(c(NC5([C@@H](C)O)CCC5)n3)[S@@+]([O-])CC4)CC2)nc1 | 10 to 50 nM |
| N#CCC1(Nc2nc(N3CC=C(c4ncc(C5CC5)cn4)CC3)nc3c2[S@+]([O-])CC3)CCC1 | < 10 nM |
| C#Cc1cnc(C2=CCN(c3nc4c(c(NC5([C@H](C)O)CCC5)n3)[S@+]([O-])CC4)CC2)nc1 | < 10 nM |
| CCOc1cnc2c(c1)OC[C@@H]1CN(c3nc4c(c(NC(C)(C)COC(N)=O)n3)[S+]([O-])CC4)CCN21 (some centres unmarked) | < 10 nM |
